Overview of recorded residual activity for various compounds
target: 3-phosphoinositide-dependent protein kinase 1 (Homo sapiens) (UniProt O15530); conditions: at 10 µM
Sequence (O15530 whole entry): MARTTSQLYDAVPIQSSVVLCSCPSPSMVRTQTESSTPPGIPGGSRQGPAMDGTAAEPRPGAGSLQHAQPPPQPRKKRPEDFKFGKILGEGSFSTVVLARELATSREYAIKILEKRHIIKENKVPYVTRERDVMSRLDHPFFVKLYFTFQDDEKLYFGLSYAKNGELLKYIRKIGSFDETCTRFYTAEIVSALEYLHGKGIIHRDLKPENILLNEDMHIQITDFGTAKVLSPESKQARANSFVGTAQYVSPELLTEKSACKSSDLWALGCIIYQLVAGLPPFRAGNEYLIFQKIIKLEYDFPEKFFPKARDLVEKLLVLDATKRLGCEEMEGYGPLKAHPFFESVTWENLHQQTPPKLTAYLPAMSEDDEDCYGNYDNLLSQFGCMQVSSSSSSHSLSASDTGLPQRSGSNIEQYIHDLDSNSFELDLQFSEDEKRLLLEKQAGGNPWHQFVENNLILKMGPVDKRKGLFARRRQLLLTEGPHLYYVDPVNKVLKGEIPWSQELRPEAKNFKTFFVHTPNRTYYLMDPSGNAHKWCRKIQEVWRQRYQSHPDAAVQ
State the answer as a number, implicitly in %.

O=C1NC(=O)C(c2cn(CCCn3ccnc3)c3ccccc23)=C1Nc1ccccc1	8
CC(C)(C)n1nc(Cc2cccc3ccccc23)c2c(N)ncnc21	117
Nc1n[nH]c2nc3ccccc3nc12	85
O=C(CCCc1ccc(-c2ccccc2F)cc1)Nc1ccc(O)cc1	90
O=C1Cc2c([nH]c3ccc([N+](=O)[O-])cc23)-c2ccccc2N1	45
c1ccc(-c2cnc(Nc3ccc(OCCN4CCCC4)cc3)s2)cc1	114
Nc1ncnc2c1cnn2-c1ccccc1	87

Please examine the following record next.
Lookup result for `O=C1NC(=O)c2c1c1c3ccccc3[nH]c1n1cncc21` ; measured residual activity: 39

Value source: ChEMBL document CHEMBL2218924
